Test system: HCT-15 colon
Assay: NCI-60 one-dose screen, 48 h (100 = growth as untreated, 0 = no growth, -100 = all killed)
Conditions: 10 µM unless noted
The panel holds about 83,000 compounds, 20% with a hit somewhere; the sample as a whole holds those more often.
Decide using growth alone. Strictly below 20%: fulfilled. Equal to or above 20%: not fulfilled.

Before answering, review these 5 worked examples.
MOLECULE	SUBJECT OF TEST	CATEGORY LABEL
FC(F)(F)c1cc2c(Cl)ncnc2n1CCN1CCCCC1	HCT-15 colon	fulfilled
C[C@H]1[C@@H](CC(=O)N[C@@H](Cc2coc3ccccc23)B(O)O)O[C@@H]2OC3(C)CC[C@H]4[C@H](C)CC[C@@H]1[C@@]24O3	HCT-15 colon	fulfilled
COc1cc(CNC(=O)C[C@H](C)CCC=C(C)C)ccc1OCc1cn(-c2ccc(Br)cc2)nn1	HCT-15 colon	not fulfilled
COc1ccc(-c2cc(C(=O)N=Nc3c(O)[nH]c4ccc(Cl)cc34)c3ccccc3n2)cc1OC	HCT-15 colon	not fulfilled
Cn1cc(-c2cc(N)n3nc(-c4c[nH]c5ccc(Cl)cc45)cc3n2)c2cc(Br)cnc21	HCT-15 colon	fulfilled

Qu. Threshold test, growth < 20%: O=C1Nc2ccccc2/C1=C\c1ccc(OCC(=O)c2ccc(Br)cc2)cc1
Ans. not fulfilled

Qu. Find out if reported growth for COc1ccc(-c2cc(C(=O)OCc3ccc(Br)cc3)nn2-c2ccc(S(C)(=O)=O)cc2)cc1OC is less than 20%
Ans. not fulfilled

Qu. Hi there! Is growth for Cc1ccc(NC(=O)N/N=C/c2c[nH]c3ccccc23)c(C)c1 below 20%, do you know?
Ans. fulfilled

Qu. I'd appreciate it if you could check whether CCOc1ccccc1[C@H]1C(C(=O)c2ccc(Cl)cc2)C2(N[C@@H]1c1ccccc1)C(=O)Nc1ccccc12 (stereo not given in full) has growth smaller than 20%.
Ans. fulfilled

Qu. Answer whether the molecule CCOC(=O)/C(F)=C/C1CC1CCc1ccc(OCC)cc1 (stereo not given) has growth strictly less than 20%
Ans. not fulfilled

Qu. Could you please tell me whether growth recorded for Cc1ccc(/C=C/C(=O)c2ccc(S(=O)(=O)NCCNc3nc(N(C)C)nc(N4CCOCC4)n3)cc2)cc1 is less than 20%?
Ans. not fulfilled

Qu. Regarding COc1c(B(O)O)cccc1-c1nc2ccc3cn[nH]c3c2c2c1CCCC2 , kindly confirm whether its growth is beneath 20%.
Ans. not fulfilled

Qu. Hi there! Is growth for COc1ccc(-c2cc(-c3ccccc3)c(C#N)c(=O)[nH]2)cc1S(N)(=O)=O below 20%, do you know?
Ans. not fulfilled

Qu. is_below(growth, 20%) for COc1cc(/C=C/C(=O)c2cnn(-c3cc(=O)[nH]c4ccc(Cl)cc34)c2C)cc(OC)c1OC ?
Ans. fulfilled

Qu. Strictly below 20%: is that where growth of O=C(Cc1c(-c2cccc([N+](=O)[O-])c2)n(-c2ncnc3c2c(-c2ccccc2)c(-c2ccccc2)n3Cc2ccccc2)[nH]c1=O)c1ccc(Cl)c(Cl)c1 sits?
Ans. not fulfilled

Qu. Hello, I'm reviewing records and need to know if growth of O=C(Nc1nc2ccccc2s1)Nc1ccccc1Cl is below 20%. Could you check?
Ans. not fulfilled

Qu. Please state whether growth is below 20% for Cc1nc2sccn2c1-c1nnc(SCC(C)C)o1
Ans. not fulfilled

Qu. Does the reported growth of the following molecule sit strictly below 20%? COc1ccc2[nH]c(=O)c(CSc3ccccc3Nc3nccc(-c4ccc(C(F)(F)F)cc4)n3)cc2c1
Ans. fulfilled

Qu. Report whether reported growth is lower than 20% (strictly) for COC(=O)c1cc(C(=O)C(Br)Br)n2c1ccc1c3ccccc3ccc12
Ans. not fulfilled

Qu. Strictly below 20%: is that where growth of O=C(CSc1nnc(-c2ccc(-c3nc4ccccc4[nH]3)cc2)o1)Nc1ccc(Cl)cc1 sits?
Ans. fulfilled

Qu. Just wondering, is growth of COc1cc(NC(=O)C(C)C)ccc1C(=O)NC(=S)Nc1ccc(S(N)(=O)=O)cc1 below 20%?
Ans. not fulfilled

Qu. Please let me know if CN(C)c1nc(NCCNS(=O)(=O)c2ccc(C3=Nc4c(N)nc(N)nc4NC(c4ccc(Cl)cc4)C3)cc2)nc(N2CCOCC2)n1 (stereo not given) shows growth below 20%.
Ans. not fulfilled

Qu. Problem: For the molecule COc1ccc(C2=NN(C(=O)[C@H]3[C@@H](c4ccco4)c4sc(=O)[nH]c4S[C@@H]3C)C(c3ccc4ccccc4c3)C2)cc1 (stereo not given in full) , is growth under 20%?
Ans. fulfilled

Qu. Given Cc1ccc2nc(SCc3ccccc3F)n(-c3ccccc3)c(=O)c2c1 , is recorded growth strictly lower than 20%?
Ans. not fulfilled
